- targetOrSystem: T1, Recombinant Human IL-1α (human, UniProt P01583 113-271)
- T1 construct: Bought recombinant protein; Biotinylated in the capture ELISA; also called hIL-1α; IL-1 alpha
- T1 sequence (looked up): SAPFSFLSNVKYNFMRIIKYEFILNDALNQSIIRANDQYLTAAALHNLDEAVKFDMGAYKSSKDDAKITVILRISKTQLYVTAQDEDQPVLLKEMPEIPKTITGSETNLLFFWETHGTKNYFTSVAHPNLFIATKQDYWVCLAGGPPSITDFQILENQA
- testProtocol: SPR (BIACORE), human antigen
assayMetric: Kd (pM)
Reply with just the number (in pM).

Query string: Report Kd for 3D12r16 (antibody, human IgG1, kappa, L234A L235A, V domains shown, Parent anti-IL-1α antibody; also called 3D12r16VH; 3D12r16VL) VH: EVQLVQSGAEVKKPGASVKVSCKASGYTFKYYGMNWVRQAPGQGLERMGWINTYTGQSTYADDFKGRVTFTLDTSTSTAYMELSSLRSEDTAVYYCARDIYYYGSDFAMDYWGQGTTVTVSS VL: DIQMTQSPSSLSASVGDRVTITCRASQDISNMLNWYQQKPGKAPKLLIYYTSRLKPGVPSRFSGSGSGTDYTFTISSLQPEDIATYFCQQGKTAPYTFGQGTKLEIKR
Result string: 31
